Assign growth to each entry below.
- Tested on: HCC-2998 colon
- testProtocol: NCI-60 one-dose screen, 48 h (100 = growth as untreated, 0 = no growth, -100 = all killed)
- conditions: 10 µM unless noted
This is part of a sample that, as a whole, favours compounds with a hit. Of some 83,000 tested, about 20% had one in any assay.
One number for each entry, in %.

Recorded growth, per entry:
Query :: Query growth for CCOC(=O)C(Br)=P(c1ccccc1)(c1ccccc1)c1ccccc1
Result :: 109

Query :: Query growth for COc1cc(-c2nnc(-c3nc(-c4cc(OC)c(OC)c(OC)c4)n4ccccc34)o2)ccc1N
Result :: 89.1

# batch: return growth for each of the 3 compounds below
1. NS(=O)(=O)c1ccc(N2CC(c3nc4ccccc4[nH]3)CC2=O)cc1 (stereo not given)
2. O=C(O)CCC(=O)OC[C@@H](NC(=O)C(Cl)Cl)[C@H](O)c1ccc([N+](=O)[O-])cc1
3. CC(=O)N1N=C(c2ccc(Nc3nc(NCCO)nc(NCCO)n3)cc2)CC1c1ccc(Cl)cc1 (stereo not given)

Result ::
99.1
100
102

# batch: return growth for each of the 4 compounds below
1. Cc1ccccc1NC(=O)N/C(N)=N/c1nc2ccccc2s1
2. Clc1ccc2nc(CI)c(CI)nc2c1
3. O=c1[nH]cc(Nc2cc(Cl)c3nonc3c2[N+](=O)[O-])c(=O)[nH]1
4. COc1ccc2c(c1)CC/C(=C\c1ccc(OCC(=O)Nc3nc4ccccc4s3)cc1)C2=O

Result ::
17.2
100
90.6
87.6

Query :: Query growth for COc1cccc(-c2nc(-c3ccc(N)cc3)co2)c1
Result :: 122

====

- Test system: CAKI-1 renal
- testProtocol: NCI-60 one-dose screen, 48 h (100 = growth as untreated, 0 = no growth, -100 = all killed)
- conditions: 10 µM unless noted
This is part of a sample that, as a whole, favours compounds with a hit. Of some 83,000 tested, about 20% had one in any assay.
measurementName: growth (%)
Give bare numbers, in %.

Query :: Query growth for CC(=O)c1nn(-c2ccccc2)c(=Nc2ccccc2)cc1C
Result :: 99.1

Query :: Query growth for O=c1ccn(C2CC=C(CO)O2)c(=O)[nH]1 (stereo unspecified)
Result :: 63.1

Query :: Query growth for O=C(CSc1nnc(-c2cc(-c3ccccc3)nc3ccccc23)o1)c1ccc(Br)cc1
Result :: 91.2

Query :: Query growth for COc1ccc(NC(=O)c2ccc(-c3ccccc3)cc2)c(C(N)=O)c1
Result :: 103

Query :: Query growth for CC(=O)Nc1c(Cl)cc2c(c1Cl)Cc1ccccc1-2
Result :: 86.1

--- query ---
Query :: Query growth for COc1cccc(-c2nc(-c3ccc(N)cc3)co2)c1
Result :: 94.7

====

- Tested on: HCT-15 colon
- testProtocol: NCI-60 one-dose screen, 48 h (100 = growth as untreated, 0 = no growth, -100 = all killed)
- conditions: 10 µM unless noted
The panel holds about 83,000 compounds, 20% with a hit somewhere; the sample as a whole holds those more often.
Assign growth to each entry below.
Answers are plain numbers, in %.

Query :: Query growth for N#Cc1ccc(-c2csc(Nc3ccc4nc5n(c(=O)c4c3)CCC5)n2)cc1
Result :: 98.2

Query :: Query growth for O=C(Nc1nc(-c2ccc(Cl)cc2)cs1)c1cc(-c2ccc(Br)cc2)nc2ccc(Cl)cc12
Result :: 10.8

Query :: Query growth for CSc1nc2nc3c(c(-c4ccc(C)cc4)c2c(=O)[nH]1)CN(C)C/C3=C\c1ccc(C)cc1
Result :: 116

Query :: Query growth for CCC(=O)Nc1cc2c(cc1Cl)-c1ccccc1C2
Result :: 94.9

# batch: return growth for each of the 3 compounds below
1. Cc1cc2ccccn2c1C(=O)c1ccc(C(=O)c2ccccc2)cc1
2. O=C1N=C(N2CCOCC2)S/C1=C\c1cn(-c2ccccc2)nc1-c1ccccc1
3. Cc1onc(-c2ccccc2Cl)c1C(=O)N[C@@H]1C(=O)N2[C@@H]1SC(C)(C)[C@@H]2C(=O)O

Result ::
1. 85.5
2. 89.4
3. 106
